meta.source: ChEMBL document CHEMBL1143703

- PROCEDURE_SUMMARY: Inhibition of post acid activity of rabbit reticulocyte 20S proteasome
- Parameters: species or system Oryctolagus cuniculus
Residues, ends and D or L forms follow the SMILES beside them. *: point of attachment. Boc = CC(C)(C)OC(=O)*; NHBn = c1ccc(CN*)cc1; Bn = c1ccc(C*)cc1
ENDPOINT: Ki (µM)

P. CC(C)C[C@H](NC(=O)[C@H](Cc1ccc(OCc2ccccc2)cc1)NC(=O)OC(C)(C)C)C(=O)N[C@@H](Cc1c[nH]c2ccccc12)C(=O)Nc1ccc(O)cc1
Q. CC(C)(C)OC(=O)N[C@@H](Cc1ccc(OCc2ccccc2)cc1)C(=O)NCC(=O)N[C@@H](Cc1c[nH]c2ccccc12)C(=O)NCc1ccccc1 (Boc-Tyr(Bn)-Gly-Trp-NHBn)
R. C[C@H](NC(=O)[C@H](Cc1ccc(OCc2ccccc2)cc1)NC(=O)OC(C)(C)C)C(=O)N[C@@H](Cc1c[nH]c2ccccc12)C(=O)Nc1ccc(O)cc1
Kindly provide a descending ordering of the above compounds based on their Ki. Answer format: the labels, ordered as requested.
P, Q, R
(P: 96.4 µM, Q: 31.5 µM, R: 1 µM)
